# Test system: U251 CNS
# experiment_description: NCI-60 one-dose screen, 48 h
# settings: 10 µM unless noted
The panel holds about 83,000 compounds, 20% with a hit somewhere; the sample as a whole holds those more often. Active and inactive are the calls of the source. The calls were made as follows: active = growth percent below 10; inactive = the rest.
Pick one and only one: y = active, n = inactive

Solved cases (5 shown):
molecule	category
c1ccc(CSC(c2ccccc2)c2ccccc2)cc1	n
COc1ccc(/C=C\c2cc(OC)c(OC)c(OC)c2)cc1OCC(=O)Nc1nc2ccc(F)cc2s1	n
COc1ccc2nc(NC(=O)COc3cc(/C=C\c4cc(OC)c(OC)c(OC)c4)ccc3OC)sc2c1	n
COc1ccc(C2=CC(c3ccc(OC)c(OC)c3)c3c(c4ccccc4oc3=O)O2)cc1OC (stereo not given)	n
CCC(=O)Nc1ccc(Cl)c(Cl)c1	n

Query: Please share the test call associated with `COC(=O)[C@@H](C)C[C@H](Cc1ccccc1)NC(=O)c1csc(CC[C@H](C(C)C)N(C)C(=O)[C@@H](NC(=O)[C@H]2CCCCN2C)C(C)C)n1` .
Response: n

Query: Also check O=C([O][Hg][CH2]C1OCCOC1[CH2][Hg][O]C(=O)c1ccccc1)c1ccccc1 (stereo not given)
Response: n

Query: Also check O=C(CC1(O)C(=O)N(Cc2ccccc2)c2ccc(Cl)cc21)c1ccc(C(=O)NCC2CCC3(CC2)OOC2(CCCCC2)OO3)cc1 (stereo not given)
Response: y

Query: Also check `O=Cc1cn(Cc2ccc(Cl)cc2)c2ccccc12`
Response: n

Query: Also check `COc1ccc2c(c1)c(-c1nc(-c3c[nH]c4ncccc34)cs1)cn2CCCCN1CCCCC1`
Response: y

---

# System: M14 melanoma
# experiment_description: NCI-60 one-dose screen, 48 h
# settings: 10 µM unless noted
# Experimental: Growth inhibition of the M14 human tumor cell line is measured as a screen for anti-cancer activity. Cells are grown in 96 well plates and exposed to the test compound for 48 hours. Compounds are tested at a single concentration, which is 10^-5 M for most compounds. The reported endpoint is percent growth (GI% or GIPRCNT), where numbers from 0 - 100% represent growth inhibition, and numbers from -100% - 0 represent cell death. For example, a value of 40 represents 60% growth inhibition. […]
This is part of a sample that, as a whole, favours compounds with a hit. Of some 83,000 tested, about 20% had one in any assay. Active and inactive are the calls of the source. Rule for the calls: active = growth percent below 10; inactive = the rest.
Pick one and only one: active, inactive

compound	system_under_test	category
N#CC1(C#N)C(c2ccc(N(CCCl)CCCl)cc2)OC23CCCCC2C1(C#N)C(=N)O3 (stereo unspecified)	M14 melanoma	inactive
Oc1c(CCl)cc(Cl)cc1CCl	M14 melanoma	inactive
COc1cc(/C=C/[N+](=O)[O-])cc(OC)c1	M14 melanoma	active
COc1ccc2c(c1)c(C1(O)CC(CSC#N)OC1=O)cn2C(=O)c1ccc(Cl)cc1 (stereo unspecified)	M14 melanoma	inactive
CC(C)(C)C(=O)OCOP(=O)(NCc1ccccc1)C1CCCN(O)C1=O (stereo unspecified)	M14 melanoma	inactive

Consider now this further compound.
Query: Please share the test call associated with `Nc1cc2nc3ccccc3nc2cc1N` .
Response: inactive

---

# Tested on: RXF 393 renal
# experiment_description: NCI-60 one-dose screen, 48 h (100 = growth as untreated, 0 = no growth, -100 = all killed)
# settings: 10 µM unless noted
About 83,000 compounds went through this panel and 20% of them were active in at least one assay; those are over-represented in the sample as a whole.
Please respond with reported growth for every item in the list.
Give bare numbers, in %.

molecule	unit_symbol	growth
CC(CC1CCCCC1)NCc1ccccc1 (stereo unspecified)	%	99.6
CC(=O)ONc1ccc([N+](=O)[O-])c(C(F)(F)F)c1	%	115
O=C1C2CCC1C(N1CCCC1)CC2 (stereo unspecified)	%	104
CC(=O)C(c1c(O)c2ccccc2oc1=O)c1cc(=O)oc2c1ccc1ccccc12 (stereo unspecified)	%	97
O=C(O)CNC(=O)C(Cl)(Cl)Cl	%	92.1
CCOc1ccc(/C=C/[N+](=O)[O-])cc1	%	16.9
O=C(CCl)c1ccc([N+](=O)[O-])o1	%	-48.2
O=[N+]([O-])c1cnc[nH]1	%	128
Fc1c[c-]c(-c2ccccn2)c(F)c1.[CH3-].[Pt+2].c1ccc([PH+](c2ccccc2)c2ccccn2)cc1	%	-64.8
C[C@]12CCc3sc(-c4cccc(F)c4)nc3C1=CC[C@@H]1[C@@H]2CC[C@]2(C)C(=O)CC[C@@H]12	%	-22.5

Pending molecule:
Query: # get_value(readout='growth', item= CN1CC(CNC(=O)OCc2ccccc2)CC2c3cccc4c3c(cn4C)CC21 (stereo unspecified) )
Response: 8.6
